# Tested on: Neutrophil
# Test: Anti-inflammatory activity in human neutrophils assessed as inhibition of fMLF/CB-induced superoxide anion generation preincubated for 5 mins followed by CB stimulation for 3 mins and subsequent fMLF stimulation for 10 mins by spectrophotometric method
# Format: functional, cell-based
Observed Property: pIC50
Please keep in mind that pIC50 is minus log10 of the molar concentration; only the number is needed.

Exercise: Short answer please: pIC50, Neutrophil, entry O=c1cc(N2CCOCC2)oc2c(-c3ccccc3)cccc12 [LY-294002]
Solution: 5.74

----------
Please respond with reported IC50 for every item in the list.
# Test system: Neutrophil
# Test: Anti-inflammatory activity in human neutrophils assessed as inhibition of fMLF/CB-induced elastase release by measuring degranulation of azurophilic granules using MeOSuc-Ala-Ala-ProVal-p-nitroanilide as substrate preincubated for 5 mins followed by CB/fMLF stimulation
# Assay type: functional, cell-based
Reply with just the number (in µM).

Exercise: Short answer please: IC50, Neutrophil, entry "O=c1cc(N2CCOCC2)oc2c(-c3ccccc3)cccc12"
Solution: 3.3

Exercise: Short answer please: IC50, Neutrophil, entry "CC(=O)O[C@@]12[C@H](OC(=O)/C=C/C=C/C=O)[C@@H](C)[C@@]3(O)[C@@H](C=C(CO)C[C@]4(O)C(=O)C(C)=C[C@@H]34)[C@@H]1C2(C)C"
Solution: 2.7

----------
Please respond with reported Activity for every item in the list.
# System: Neutrophil
# Test: Proinflammatory activity in human neutrophils assessed as superoxide anion generation at 10 uM incubated for 5 mins by spectrophotometric method relative to control
# Assay type: ADME, cell-based

Exercise: Short answer please: Activity, Neutrophil, entry "CCCCCCC[C@H](O)[C@@H](O)/C=C/C=C/C(=O)O[C@@H]1[C@@H](C)[C@@]2(O)[C@@H](C=C(CO)C[C@]3(O)C(=O)C(C)=C[C@@H]23)[C@@H]2C(C)(C)[C@]12OC(C)=O"
Solution: 107.1%

Exercise: Short answer please: Activity, Neutrophil, entry "CCCCCCCC(=O)O[C@@]12C[C@@H](C)[C@@]3(O)[C@@H](C=C(CO)C[C@]4(O)C(=O)C(C)=C[C@@H]34)[C@@H]1C2(C)C"
Solution: 109.6%

Exercise: Short answer please: Activity, Neutrophil, entry "CC(=O)O[C@@]12[C@H](OC(=O)/C=C/C=C/C=O)[C@@H](C)[C@@]3(O)[C@@H](C=C(CO)C[C@]4(O)C(=O)C(C)=C[C@@H]34)[C@@H]1C2(C)C"
Solution: 106.1%

Exercise: Short answer please: Activity, Neutrophil, entry "CCCCCCCC/C=C\CCCCCCCC(=O)OCC1=C[C@H]2[C@@H]3C(C)(C)[C@]3(OC(C)=O)C[C@@H](C)[C@]2(O)[C@@H]2C=C(C)C(=O)[C@@]2(O)C1"
Solution: 18.1%

Exercise: Short answer please: Activity, Neutrophil, entry "CCCCCCCCCC(=O)O[C@@]12C[C@@H](C)[C@@]3(O)[C@@H](C=C(CO)C[C@]4(O)C(=O)C(C)=C[C@@H]34)[C@@H]1C2(C)C"
Solution: 95.3%

Exercise: Short answer please: Activity, Neutrophil, entry CCCCCCCCCCCCCC(=O)O[C@@H]1[C@@H](C)[C@@]2(O)[C@@H](C=C(CO)C[C@]3(O)C(=O)C(C)=C[C@@H]23)[C@@H]2C(C)(C)[C@]12OC(C)=O [PHORBOL MYRISTATE ACETATE]
Solution: 102.7%

Exercise: Short answer please: Activity, Neutrophil, entry "CCCCCCC[C@@H](O)[C@@H](O)/C=C/C=C/C(=O)O[C@@H]1[C@@H](C)[C@@]2(O)[C@@H](C=C(CO)C[C@]3(O)C(=O)C(C)=C[C@@H]23)[C@@H]2C(C)(C)[C@]12OC(C)=O"
Solution: 106%

----------
# Tested on: Neutrophil
# Test: Anti-inflammatory activity in human neutrophils assessed as inhibition of fMLF/CB-induced elastase release by measuring degranulation of azurophilic granules using MeOSuc-Ala-Ala-ProVal-p-nitroanilide as substrate preincubated for 5 mins followed by CB/fMLF stimulation
# Assay type: functional, cell-based
Observed Property: IC50

Exercise: Name the reported IC50 value associated with the molecule "CCCCCCCC(=O)O[C@@]12C[C@@H](C)[C@@]3(O)[C@@H](C=C(CO)C[C@]4(O)C(=O)C(C)=C[C@@H]34)[C@@H]1C2(C)C"
Solution: 2100 nM

Exercise: Name the reported IC50 value associated with the molecule "CCCCCCCCCC(=O)O[C@@]12C[C@@H](C)[C@@]3(O)[C@@H](C=C(CO)C[C@]4(O)C(=O)C(C)=C[C@@H]34)[C@@H]1C2(C)C"
Solution: 800 nM

Exercise: Name the reported IC50 value associated with the molecule "CCCCCCCC/C=C\CCCCCCCC(=O)OCC1=C[C@H]2[C@@H]3C(C)(C)[C@]3(OC(C)=O)C[C@@H](C)[C@]2(O)[C@@H]2C=C(C)C(=O)[C@@]2(O)C1"
Solution: > 10000 nM
